# Organism: Rattus norvegicus
# protocol_notes: Open TG-GATES - Regimen: Daily Repeat
# Assay type: toxicity, organism-based, Sprague-Dawley
# Parameters: regimen Daily Repeat, gender Male, age 6 weeks
# measurement_setup: in vivo, po, 1000 mg/kg, 72 h, tissue Blood, route gavage, dose level High, time 3 day
Ret reference
reported_metric: Ret

1) COc1ccc2[nH]c([S+]([O-])Cc3ncc(C)c(OC)c3C)nc2c1 (stereo unspecified) :: 1.7%
2) CCOC(=O)CCC(=O)O[C@H]1[C@H](O[C@@H]2[C@@H](C)[C@H](O[C@H]3C[C@@](C)(OC)[C@@H](O)[C@H](C)O3)[C@@H](C)C(=O)O[C@H](CC)[C@@](C)(O)[C@H](O)[C@@H](C)C(=O)[C@H](C)C[C@@]2(C)O)O[C@H](C)C[C@@H]1N(C)C [ERYTHROMYCIN ETHYLSUCCINATE] :: 3.4%
3) CC(C)OC(=O)C(C)(C)Oc1ccc(C(=O)c2ccc(Cl)cc2)cc1 [FENOFIBRATE] :: 5.6%
4) COC1=CC(=O)C[C@@H](C)[C@]12Oc1c(Cl)c(OC)cc(OC)c1C2=O :: 6.9%
5) NC(N)=Nc1nc(CSCCC(N)=NS(N)(=O)=O)cs1 :: 4.4%
6) CCOc1ccc(NC(=O)CC(C)O)cc1 (stereo unspecified) :: 2.9%

* * *

DBIL reference
# Species: Rattus norvegicus
# protocol_notes: Open TG-GATES - Regimen: Single
# Type: toxicity, organism-based, Sprague-Dawley
# Design: regimen Single, gender Male, age 6 weeks
# measurement_setup: in vivo, po, 100 mg/kg, 6 h, tissue Plasma, route gavage, dose level High
reported_metric: DBIL (mg/dL)

1. CN(C)CCCN1c2ccccc2CCc2ccc(Cl)cc21 :: 0.042
2. CC1=C(/C=C/C(C)=C/C=C/C(C)=C/CO)C(C)(C)CCC1 :: 0.006
3. CN(C)CCN(Cc1cccs1)c1ccccn1 :: 0.004
4. CN(C)CCCN1c2ccccc2CCc2ccccc21 :: 0.01

* * *

# Species: Rattus norvegicus
# protocol_notes: Open TG-GATES - Regimen: Daily Repeat
# Format: toxicity, organism-based, Sprague-Dawley
# Parameters: regimen Daily Repeat, gender Male, age 6 weeks
# measurement_setup: in vivo, po, 300 mg/kg, […], tissue Plasma, route gavage, dose level Middle, time 14 day
reported_metric: PL (mg/dL)

1) COc1ccc2[nH]c([S+]([O-])Cc3ncc(C)c(OC)c3C)nc2c1 (stereo not given) [OMEPRAZOLE] :: 162.6
2) COC1=CC(=O)C[C@@H](C)[C@]12Oc1c(Cl)c(OC)cc(OC)c1C2=O [GRISEOFULVIN] :: 142.6
3) CCOC(=O)CCC(=O)O[C@H]1[C@H](O[C@@H]2[C@@H](C)[C@H](O[C@H]3C[C@@](C)(OC)[C@@H](O)[C@H](C)O3)[C@@H](C)C(=O)O[C@H](CC)[C@@](C)(O)[C@H](O)[C@@H](C)C(=O)[C@H](C)C[C@@]2(C)O)O[C@H](C)C[C@@H]1N(C)C [ERYTHROMYCIN ETHYLSUCCINATE] :: 146.8
4) NC(N)=Nc1nc(CSCCC(N)=NS(N)(=O)=O)cs1 [FAMOTIDINE] :: 146.6
5) CCOc1ccc(NC(=O)CC(C)O)cc1 (stereo not given) [BUCETIN] :: 179.2

* * *

# Species on record: Rattus norvegicus
# protocol_notes: Open TG-GATES - Regimen: Single
# Type: toxicity, organism-based, Sprague-Dawley
# Parameters: regimen Single, gender Male, age 6 weeks
# measurement_setup: in vivo, po, 10 mg/kg, 3 h, tissue Kidney, route gavage, dose level Low
reported_metric: KIDNEY_TOTAL (g)

1. CN(C)CCCN1c2ccccc2CCc2ccc(Cl)cc21 [CLOMIPRAMINE] :: 1.9
2. CN(C)CCN(Cc1cccs1)c1ccccn1 :: 1.6
3. CC(C)OC(=O)C(C)(C)Oc1ccc(C(=O)c2ccc(Cl)cc2)cc1 [FENOFIBRATE] :: 1.6
4. CN(C)CCCN1c2ccccc2CCc2ccccc21 [IMIPRAMINE] :: 1.8
5. CC1=C(/C=C/C(C)=C/C=C/C(C)=C/CO)C(C)(C)CCC1 [RETINOL] :: 1.8

* * *

# Species on record: Rattus norvegicus
# protocol_notes: Open TG-GATES - Regimen: Single
# Format: toxicity, organism-based, Sprague-Dawley
# Set-up: regimen Single, gender Male, age 6 weeks
# measurement_setup: in vivo, po, 1000 mg/kg, 9 h, tissue Plasma, route gavage, dose level High
reported_metric: Cl (meq/L)

1. CCOC(=O)CCC(=O)O[C@H]1[C@H](O[C@@H]2[C@@H](C)[C@H](O[C@H]3C[C@@](C)(OC)[C@@H](O)[C@H](C)O3)[C@@H](C)C(=O)O[C@H](CC)[C@@](C)(O)[C@H](O)[C@@H](C)C(=O)[C@H](C)C[C@@]2(C)O)O[C@H](C)C[C@@H]1N(C)C [ERYTHROMYCIN ETHYLSUCCINATE] :: 105.8
2. COC1=CC(=O)C[C@@H](C)[C@]12Oc1c(Cl)c(OC)cc(OC)c1C2=O [GRISEOFULVIN] :: 104.4
3. COc1ccc2[nH]c([S+]([O-])Cc3ncc(C)c(OC)c3C)nc2c1 (centres undefined) [OMEPRAZOLE] :: 100.8
4. NC(N)=Nc1nc(CSCCC(N)=NS(N)(=O)=O)cs1 [FAMOTIDINE] :: 103.8

* * *

TC reference
# Organism: Rattus norvegicus
# protocol_notes: Open TG-GATES - Regimen: Single
# Format: toxicity, organism-based, Sprague-Dawley
# Set-up: regimen Single, gender Male, age 6 weeks
# measurement_setup: in vivo, po, 30 mg/kg, 9 h, tissue Plasma, route gavage, dose level Middle
reported_metric: TC

1. CC1=C(/C=C/C(C)=C/C=C/C(C)=C/CO)C(C)(C)CCC1 :: 72 mg/dL
2. CN(C)CCN(Cc1cccs1)c1ccccn1 :: 77.4 mg/dL
3. CN(C)CCCN1c2ccccc2CCc2ccccc21 :: 68 mg/dL
4. CN(C)CCCN1c2ccccc2CCc2ccc(Cl)cc21 :: 83.4 mg/dL

* * *

# Species on record: Rattus norvegicus
# protocol_notes: Open TG-GATES - Regimen: Daily Repeat
# Assay type: toxicity, organism-based, Sprague-Dawley
# Design: regimen Daily Repeat, gender Male, age 6 weeks
# measurement_setup: in vivo, po, 0 mg/kg, […], tissue Plasma, route gavage, dose level Control, time 7 day
We use 7 mg/dL as the dividing line for IP: on or above the line is Satisfied, below is Not satisfied.

1. NNC(=O)c1ccncc1 :: Satisfied
2. CN(C)CCCN1c2ccccc2CCc2ccccc21 :: Satisfied
3. COc1ccc2[nH]c([S+]([O-])Cc3ncc(C)c(OC)c3C)nc2c1 (stereo unspecified) :: Satisfied
4. CC1=C(/C=C/C(C)=C/C=C/C(C)=C/CO)C(C)(C)CCC1 :: Not satisfied
5. CCOc1ccc(NC(=O)CC(C)O)cc1 (stereo unspecified) :: Satisfied
6. CC(C)OC(=O)C(C)(C)Oc1ccc(C(=O)c2ccc(Cl)cc2)cc1 [FENOFIBRATE] :: Satisfied

* * *

# Organism: Rattus norvegicus
# protocol_notes: Open TG-GATES - Regimen: Daily Repeat
# Assay type: toxicity, organism-based, Sprague-Dawley
# Set-up: regimen Daily Repeat, gender Male, age 6 weeks
# measurement_setup: in vivo, po, 1000 mg/kg, […], tissue Plasma, route gavage, dose level High, time 7 day
reported_metric: A/G

1) CCOc1ccc(NC(=O)CC(C)O)cc1 (centres undefined) [BUCETIN] :: 0.8
2) COC1=CC(=O)C[C@@H](C)[C@]12Oc1c(Cl)c(OC)cc(OC)c1C2=O [GRISEOFULVIN] :: 1.3
3) NC(N)=Nc1nc(CSCCC(N)=NS(N)(=O)=O)cs1 [FAMOTIDINE] :: 1.5
4) CCOC(=O)CCC(=O)O[C@H]1[C@H](O[C@@H]2[C@@H](C)[C@H](O[C@H]3C[C@@](C)(OC)[C@@H](O)[C@H](C)O3)[C@@H](C)C(=O)O[C@H](CC)[C@@](C)(O)[C@H](O)[C@@H](C)C(=O)[C@H](C)C[C@@]2(C)O)O[C@H](C)C[C@@H]1N(C)C [ERYTHROMYCIN ETHYLSUCCINATE] :: 1.1

* * *

RALB reference
# Species on record: Rattus norvegicus
# protocol_notes: Open TG-GATES - Regimen: Daily Repeat
# Type: toxicity, organism-based, Sprague-Dawley
# Parameters: regimen Daily Repeat, gender Male, age 6 weeks
# measurement_setup: in vivo, po, 0 mg/kg, […], tissue Plasma, route gavage, dose level Control, time 14 day
reported_metric: RALB (g/dL)

1) CN1C(=O)CN=C(c2ccccc2)c2cc(Cl)ccc21 [DIAZEPAM] :: 4
2) CC(C)OC(=O)C(C)(C)Oc1ccc(C(=O)c2ccc(Cl)cc2)cc1 [FENOFIBRATE] :: 2.7
3) CCOc1ccc(NC(=O)CC(C)O)cc1 (stereo not given) [BUCETIN] :: 2.8
4) CCCNC(=O)NS(=O)(=O)c1ccc(Cl)cc1 [CHLORPROPAMIDE] :: 2.8
5) COc1ccc2[nH]c([S+]([O-])Cc3ncc(C)c(OC)c3C)nc2c1 (stereo not given) [OMEPRAZOLE] :: 3.4
